- Target under test: 5-hydroxytryptamine receptor 2A (Homo sapiens) (UniProt P28223)
- Sequence (P28223 whole entry, looked up): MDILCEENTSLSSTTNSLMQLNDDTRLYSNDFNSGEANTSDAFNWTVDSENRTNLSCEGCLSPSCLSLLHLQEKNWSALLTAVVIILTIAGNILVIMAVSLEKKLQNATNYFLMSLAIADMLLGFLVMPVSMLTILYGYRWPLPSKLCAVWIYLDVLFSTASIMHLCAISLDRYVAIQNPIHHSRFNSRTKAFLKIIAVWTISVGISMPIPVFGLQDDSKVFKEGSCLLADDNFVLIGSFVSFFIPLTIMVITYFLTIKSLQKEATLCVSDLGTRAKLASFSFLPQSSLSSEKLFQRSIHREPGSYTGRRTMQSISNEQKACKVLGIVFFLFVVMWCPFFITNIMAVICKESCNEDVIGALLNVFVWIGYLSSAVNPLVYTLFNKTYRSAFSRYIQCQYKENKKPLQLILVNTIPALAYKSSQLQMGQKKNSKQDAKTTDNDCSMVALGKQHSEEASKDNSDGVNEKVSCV
- Run description: 5-hydroxytryptamine receptor 2A (HTR2A) small molecule antagonists, cell-based qHTS assay (AID 1963586); note: nearly all actives have a fitted effect of over 45% in size
- Test settings: HTR2A-CHO cells, DOI-induced calcium flux, fluorescence; series mostly up to 61.5 µM
Records with an inconclusive call do not appear. The source made the active and inactive calls. Calls come from the whole dose curve.
Classes used: true (active), false (inactive)

INSERT INTO measurements (compound, target_under_test, label_value) VALUES
  ('BrCc1ccc(Br)cc1', '5-hydroxytryptamine receptor 2A (Homo sapiens) (UniProt P28223)', 'false'),
  ('[O-][Cl+]O', '5-hydroxytryptamine receptor 2A (Homo sapiens) (UniProt P28223)', 'false'),
  ('O=C(CCN1CC1)OCC(CO)(COC(=O)CCN1CC1)COC(=O)CCN1CC1', '5-hydroxytryptamine receptor 2A (Homo sapiens) (UniProt P28223)', 'false'),
  ('CS(=O)(=O)NC(=O)c1cc(Oc2ccc(C(F)(F)F)cc2Cl)ccc1[N+](=O)[O-]', '5-hydroxytryptamine receptor 2A (Homo sapiens) (UniProt P28223)', 'false'),
  ('CC(Cl)(Cl)C(=O)O', '5-hydroxytryptamine receptor 2A (Homo sapiens) (UniProt P28223)', 'false'),
  ('C=CC(=O)OCC(CC)(COC(=O)C=C)COC(=O)C=C', '5-hydroxytryptamine receptor 2A (Homo sapiens) (UniProt P28223)', 'false'),
  ('CC(C)(c1ccccc1)c1cc(-n2nc3ccccc3n2)c(O)c(C(C)(C)c2ccccc2)c1', '5-hydroxytryptamine receptor 2A (Homo sapiens) (UniProt P28223)', 'false'),
  ('CC1COC2(c3ccccc3Cl)c3cc(Cl)ccc3NC(=O)CN12 (stereo not drawn)', '5-hydroxytryptamine receptor 2A (Homo sapiens) (UniProt P28223)', 'false'),
  ('O=C(O)c1nn(Cc2ccc(Cl)cc2Cl)c2ccccc12', '5-hydroxytryptamine receptor 2A (Homo sapiens) (UniProt P28223)', 'false'),
  ('O=C(O)c1cc(Cl)ccc1Cl', '5-hydroxytryptamine receptor 2A (Homo sapiens) (UniProt P28223)', 'false'),
  ('Cc1ccc(N=C=O)cc1N=C=O', '5-hydroxytryptamine receptor 2A (Homo sapiens) (UniProt P28223)', 'false'),
  ('CCC(C)c1cc([N+](=O)[O-])cc([N+](=O)[O-])c1O (stereo not drawn)', '5-hydroxytryptamine receptor 2A (Homo sapiens) (UniProt P28223)', 'false'),
  ('Clc1ccc(C(Cl)(Cl)Cl)cn1', '5-hydroxytryptamine receptor 2A (Homo sapiens) (UniProt P28223)', 'false'),
  ('N#CC(Cl)(Cl)Cl', '5-hydroxytryptamine receptor 2A (Homo sapiens) (UniProt P28223)', 'false'),
  ('CN1C(=O)NC(=O)C(C)(C2=CCCCC2)C1=O (stereo not drawn)', '5-hydroxytryptamine receptor 2A (Homo sapiens) (UniProt P28223)', 'false'),
  ('Nc1ccccc1Cl', '5-hydroxytryptamine receptor 2A (Homo sapiens) (UniProt P28223)', 'false'),
  ('Nc1cc(Cl)cc(Cl)c1', '5-hydroxytryptamine receptor 2A (Homo sapiens) (UniProt P28223)', 'false'),
  ('Cc1ccc(O)c(C)c1', '5-hydroxytryptamine receptor 2A (Homo sapiens) (UniProt P28223)', 'false'),
  ('CCCCc1c(C)nc(NCC)[nH]c1=O', '5-hydroxytryptamine receptor 2A (Homo sapiens) (UniProt P28223)', 'false'),
  ('COP(=S)(OC)Oc1ccc(S(=O)(=O)N(C)C)cc1', '5-hydroxytryptamine receptor 2A (Homo sapiens) (UniProt P28223)', 'false'),
  ('CCCC[n+]1cccc(C)c1', '5-hydroxytryptamine receptor 2A (Homo sapiens) (UniProt P28223)', 'false'),
  ('CCOP(=S)(OCC)Oc1ccc2c(C)c(Cl)c(=O)oc2c1', '5-hydroxytryptamine receptor 2A (Homo sapiens) (UniProt P28223)', 'false'),
  ('O=C(O)C1C(C(=O)O)C2(Cl)C(Cl)=C(Cl)C1(Cl)C2(Cl)Cl (stereo not drawn)', '5-hydroxytryptamine receptor 2A (Homo sapiens) (UniProt P28223)', 'false'),
  ('C=CCN=C=S', '5-hydroxytryptamine receptor 2A (Homo sapiens) (UniProt P28223)', 'false'),
  ('O=C1C(Cl)=C(Cl)C(=O)c2ccccc21', '5-hydroxytryptamine receptor 2A (Homo sapiens) (UniProt P28223)', 'true'),
  ('C[N+](C)(C)CC(=O)O', '5-hydroxytryptamine receptor 2A (Homo sapiens) (UniProt P28223)', 'false'),
  ('c1ccc2c(c1)oc1ccccc12', '5-hydroxytryptamine receptor 2A (Homo sapiens) (UniProt P28223)', 'false'),
  ('COc1cc2c(cc1OC)[C@@]13CCN4CC5=CCO[C@H]6CC(=O)N2[C@H]1[C@H]6[C@H]5C[C@H]43', '5-hydroxytryptamine receptor 2A (Homo sapiens) (UniProt P28223)', 'false');

The measured values listed here are drawn from PubChem BioAssay (Tox21).
